Origin of measurements: patent US10925971B2

tested-target: T1, monomeric human PRLR (hPRLR.mmh; SEQ ID NO:401) (Homo sapiens, UniProt P16471)
T1 construct: soluble monomeric (hPRLR.mmh); mmh (myc-myc-hexahistidine) (C)
T1 sequence (P16471 with tags, fused parts or gaps): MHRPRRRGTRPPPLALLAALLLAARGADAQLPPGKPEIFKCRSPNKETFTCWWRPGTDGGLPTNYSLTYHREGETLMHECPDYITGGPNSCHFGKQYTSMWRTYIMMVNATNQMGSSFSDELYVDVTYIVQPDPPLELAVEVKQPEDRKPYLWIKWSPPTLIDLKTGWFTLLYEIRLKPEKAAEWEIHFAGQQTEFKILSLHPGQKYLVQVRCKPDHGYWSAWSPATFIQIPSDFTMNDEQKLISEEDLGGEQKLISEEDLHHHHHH
assay-summary: Surface plasmon resonance (Biacore T200), antibody-capture format
Format: binding
condition-label: 25° C., analyte hPRLR.mmh
quantity-measured: kd (s⁻¹)
Give the value in s⁻¹ but do not write s⁻¹ after it.

Annotate the molecule H1H6959N2: anti-PRLR antibody, human IgG1 Fc form of H2M6959N2 of Table 1; HCVR/LCVR SEQ ID NOs 306/314 (antibody, V domains shown) VH: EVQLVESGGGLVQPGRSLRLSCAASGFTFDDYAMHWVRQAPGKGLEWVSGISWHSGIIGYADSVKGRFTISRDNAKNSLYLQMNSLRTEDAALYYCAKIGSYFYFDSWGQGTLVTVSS VL: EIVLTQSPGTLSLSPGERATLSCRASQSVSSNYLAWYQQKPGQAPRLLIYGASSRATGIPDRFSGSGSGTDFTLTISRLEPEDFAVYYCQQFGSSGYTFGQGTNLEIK with its measured kd.
0.036
